The measured values listed here are drawn from paper PMC9482650.

target: Inadl_6, Q8NI35; test: holdup assay; parameters: key: below the threshold = too weak to quantify, mostly under pKd 3.1 to 4; conditions: plain residues with an end cap or a label only (N-terminal biotin on a linker: ttds)
Sequence (Q8NI35 1058-1167): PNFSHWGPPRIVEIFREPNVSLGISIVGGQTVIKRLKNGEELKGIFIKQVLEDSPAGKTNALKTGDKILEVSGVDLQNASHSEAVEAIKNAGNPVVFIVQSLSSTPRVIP
recorded metric: pKd

Examples with answers:
RLQRRRETQV [HPV18-E6, P06463]; below the threshold
DKDPHSETAL [TMIGD1, Q6UXZ0]; 3.53
RHTTSTETAV [HPV30-E6, P36809]; below the threshold
VDFPPKESSL [ACVR2A, P27037]; below the threshold
FHPLGADSQV [SLC2A1, P11166]; below the threshold

Query block: Write down pKd measured for item PRVKPQRSKV [PPP1R13L, Q8WUF5]
Result block: below the threshold

Query block: Write down pKd measured for item SKPTRRETEV [HPV35-E6, P27228]
Result block: below the threshold

Query block: Write down pKd measured for item KKYVDAETSL [SLC4A7, Q9Y6M7]
Result block: 3.71
